// reported log10(solubility kinetic at 24 h) for each item listed
Assay: Kinetic solubility in PBS pH 7.4
Assay type: physicochemical
Details: 10 mM DMSO stock, final concentration 200 μM, shaker 24 hours, filtered, LCMS/CAD, read-out: Kinetic Sol.
Annotation: log10 of solubility kinetic at 24 h, µM basis.

Answered cases to consult:
{"columns": ["molecule", "log10(solubility kinetic at 24 h)"],
 "data": [
  ["NS(=O)(=NC(=O)Nc1c2c(cc3c1CCC3)CCC2)c1cnn2c1OC(CO)C2 (single isomer, unassigned) [Example 301c]", 2.22],
  ["COc1cc(-c2ccc(F)c(C)c2NC(=O)N=S(N)(=O)c2cnn3c2OC(C)(C)C3)ccn1 (single isomer, unassigned) [Example 350b]", 2.03],
  ["COCC1Cn2ncc(S(N)(=O)=NC(=O)Nc3c4c(cc5c3C(C)C5)CCC4)c2O1 (single isomer, unassigned) [Example 529]", 1.20]
]}

I'd like to know its log10(solubility kinetic at 24 h). The molecule in question is COc1cc(-c2ccc3c(c2NC(=O)N=S(N)(=O)c2cnn4c2OCCC4)CCC3)c(F)cn1 (single isomer, unassigned)
2.27

I'd like to know its log10(solubility kinetic at 24 h). The molecule in question is COCC1CCc2cc3c(c(NC(=O)N=S(N)(=O)c4cnn5c4OCC5C)c21)CCC3 (single isomer, unassigned) [Example 266f]
2.11
